Reference for the values: patent US7396837B2

Here the recorded log10(GI50) is given for each entry.
- System: SKOV-3
- assayExplanation: SRB colorimetric cell growth inhibition assay, SKOV-3
- Format: cell-based
- particulars: Homo sapiens, SK-OV-3, SKOV-3; GI=growth inhibition; read-out: GI50 SKOV-3
parameterMeasured: log10(GI50) (log10 of the value in µM)

moleculeSmiles	assayedTarget	log10(GI50)
COc1cc2ccn3c(c(-c4ccc(OS(=O)(=O)C(F)(F)F)c(OC)c4)c4c5cc(OC)c(OS(=O)(=O)C(F)(F)F)cc5oc(=O)c43)c2cc1OC	SKOV-3	0.54
COc1cc(-c2c3n(c4c(=O)oc5cc(OC(=O)[C@@H]6CCCN6)c(OC)cc5c24)CCc2cc(OC(=O)[C@@H]4CCCN4)c(OC)cc2-3)ccc1OC(=O)[C@@H]1CCCN1	SKOV-3	-0.13
COc1cc2c(cc1OC)-c1c(-c3ccc(OC(=O)CCc4ccccc4)c(OC)c3)c3c4cc(OC)c(OC(=O)CCc5ccccc5)cc4oc(=O)c3n1CC2	SKOV-3	0.80
COc1cc2c(cc1OC)-c1c(-c3ccc(OS(C)(=O)=O)c(OC)c3)c3c4cc(OC)c(OS(C)(=O)=O)cc4oc(=O)c3n1CC2	SKOV-3	0.88
COc1cc(-c2c3c4cc(OC)c(OC(=O)[C@H](C)N)cc4oc(=O)c3n3ccc4cc(OC(=O)[C@H](C)N)c(OC)cc4c23)ccc1OC(=O)[C@H](C)N	SKOV-3	-1.55
COc1cc2c(cc1OC)-c1c(-c3ccc(OC(=O)[C@H](Cc4ccccc4)NC(=O)OC(C)(C)C)c(OC)c3)c3c4cc(OC)c(OC(=O)[C@H](Cc5ccccc5)NC(=O)OC(C)(C)C)cc4oc(=O)c3n1CC2	SKOV-3	0.66
COc1cc(-c2c3c4cc(OC)c(OC(=O)[C@H](N)C(C)C)cc4oc(=O)c3n3ccc4c(OC(=O)[C@H](N)C(C)C)c(OC)c(OC)cc4c23)ccc1OC(=O)[C@H](N)C(C)C	SKOV-3	-0.84
COc1cc(-c2c3n(c4c(=O)oc5cc(OC(=O)c6cc(F)c(F)c(F)c6F)c(OC)cc5c24)CCc2c-3cc(OC)c(OC)c2OC(=O)c2cc(F)c(F)c(F)c2F)ccc1OC(=O)c1cc(F)c(F)c(F)c1F	SKOV-3	0.97
COc1cc(-c2c3c4cc(OC)c(OC(=O)[C@@H](N)CC(C)C)cc4oc(=O)c3n3ccc4cc(OC(=O)[C@@H](N)CC(C)C)c(OC)cc4c23)ccc1OC(=O)[C@@H](N)CC(C)C	SKOV-3	-1.20
COc1cc(-c2c3c4cc(OC)c(OC(=O)[C@@H](N)CC(C)C)cc4oc(=O)c3n3ccc4c(OC(=O)[C@@H](N)CC(C)C)c(OC)c(OC)cc4c23)ccc1OC(=O)[C@@H](N)CC(C)C	SKOV-3	-0.76
COc1cc(-c2c3n(c4c(=O)oc5cc(OC(=O)[C@@H](N)COCc6ccccc6)c(OC)cc5c24)CCc2c-3cc(OC)c(OC)c2OC(=O)[C@@H](N)COCc2ccccc2)ccc1OC(=O)[C@@H](N)COCc1ccccc1	SKOV-3	0.45

* * *

- Test system: SK-MEL-28
- assayExplanation: SRB colorimetric cell growth inhibition assay, SK-MEL-28
- Type: cell-based
- particulars: Homo sapiens, SK-MEL-28, MEL-28; GI=growth inhibition; read-out: GI50 MEL-28
GI50 less than 200 nM is yes; GI50 greater than or equal to 200 nM is no.

compound	assayedTarget	label
COc1cc(-c2c3c4cc(OC)c(OC(C)C)cc4oc(=O)c3n3ccc4c(OC(C)C)c(OC)c(OC)c(COS(C)(=O)=O)c4c23)ccc1OC(C)C [Compound 101]	SK-MEL-28	no
COc1cc(-c2c3n(c4c(=O)oc5cc(OC(=O)[C@@H]6CCCN6)c(OC)cc5c24)CCc2c-3cc(OC)c(OC)c2OC(=O)[C@@H]2CCCN2)ccc1OC(=O)[C@@H]1CCCN1 [Compound 118]	SK-MEL-28	no
COc1cc(-c2c3c4cc(OC)c(OC(=O)[C@@H](N)Cc5ccccc5)cc4oc(=O)c3n3ccc4cc(OC(=O)[C@@H](N)Cc5ccccc5)c(OC)cc4c23)ccc1OC(=O)[C@@H](N)Cc1ccccc1 [Compound 204]	SK-MEL-28	yes
COc1cc(-c2c3c4cc(OC)c(OC(=O)[C@H](C)N)cc4oc(=O)c3n3ccc4cc(OC(=O)[C@H](C)N)c(OC)cc4c23)ccc1OC(=O)[C@H](C)N [Compound 40]	SK-MEL-28	yes
COc1cc(-c2c3c4cc(OC)c(OC(=O)[C@@H](NC(=O)OC(C)(C)C)C(C)C)cc4oc(=O)c3n3ccc4cc(OC(=O)[C@@H](NC(=O)OC(C)(C)C)C(C)C)c(OC)cc4c23)ccc1OC(=O)[C@@H](NC(=O)OC(C)(C)C)C(C)C [Compound 38]	SK-MEL-28	yes
COc1cc2c(cc1OC)-c1c(-c3ccc(OC(=O)CCc4ccccc4)c(OC)c3)c3c4cc(OC)c(OC(=O)CCc5ccccc5)cc4oc(=O)c3n1CC2 [Compound 93]	SK-MEL-28	no
COc1cc2c(cc1O)CCn1c-2cc2c3cc(OC)c(O)cc3oc(=O)c21 [Compound 196]	SK-MEL-28	no
COc1cc(-c2c3c4cc(OC)c(OC(C)C)cc4oc(=O)c3n3ccc4c([N+](=O)[O-])cccc4c23)ccc1OC(C)C [Compound 54]	SK-MEL-28	no
COc1cc(-c2c3c4cc(OC)c(O)cc4oc(=O)c3n3ccc4c(N)cccc4c23)ccc1O [Compound 182]	SK-MEL-28	no
COc1cc(-c2c3c4cc(OC)c(OC(=O)C[C@H](N)C(C)C)cc4oc(=O)c3n3ccc4cc(OC(=O)C[C@H](N)C(C)C)c(OC)cc4c23)ccc1OC(=O)C[C@H](N)C(C)C [Compound 206]	SK-MEL-28	yes
COc1cc2ccn3c(c(-c4ccc(OC(=O)[C@@H](NC(=O)OC(C)(C)C)C(C)C)c(OC)c4)c4c5cc(OC)c(OC(=O)[C@@H](NC(=O)OC(C)(C)C)C(C)C)cc5oc(=O)c43)c2cc1OC [Compound 15]	SK-MEL-28	yes
COc1cc2c(cc1OC)-c1c(-c3ccc(OC(=O)[C@H](C)N)c(OC)c3)c3c4cc(OC)c(OC(=O)[C@H](C)N)cc4oc(=O)c3n1CC2 [Compound 63]	SK-MEL-28	no
COc1cc(-c2c3c4cc(OC)c(OC(=O)[C@@H](N)C(C)C)cc4oc(=O)c3n3ccc4cc(OC(=O)[C@@H](N)C(C)C)c(OC)cc4c23)ccc1OC(=O)[C@@H](N)C(C)C [Compound 36]	SK-MEL-28	yes
COc1cc(-c2c3c4cc(OC)c(OC(=O)[C@H](C)NC(=O)[C@H](C)N)cc4oc(=O)c3n3ccc4c(OC(=O)[C@H](C)NC(=O)[C@H](C)N)c(OC)c(OC)cc4c23)ccc1OC(=O)[C@H](C)NC(=O)[C@H](C)N [Compound 5]	SK-MEL-28	yes
COc1cc(-c2c3c4cc(OC)c(OC(=O)[C@H](N)C(C)C)cc4oc(=O)c3n3ccc4c(OC(=O)[C@H](N)C(C)C)c(OC)c(OC)cc4c23)ccc1OC(=O)[C@H](N)C(C)C [Compound 43]	SK-MEL-28	no
COc1cc(-c2c3n(c4c(=O)oc5cc(OC(=O)[C@H](CO)NC(=O)OC(C)(C)C)c(OC)cc5c24)CCc2c-3cc(OC)c(OC)c2OC(=O)[C@H](CO)NC(=O)OC(C)(C)C)ccc1OC(=O)[C@H](CO)NC(=O)OC(C)(C)C [Compound 60]	SK-MEL-28	no
COc1cc2ccn3c(c(-c4ccc(OS(=O)(=O)C(F)(F)F)c(OC)c4)c4c5cc(OC)c(OS(=O)(=O)C(F)(F)F)cc5oc(=O)c43)c2cc1OC [Compound 126]	SK-MEL-28	no
COc1cc(-c2c3n(c4c(=O)oc5cc(O)c(OC)cc5c24)CCc2c-3cc(OC)c(OC)c2O)ccc1O [Compound 1]	SK-MEL-28	no
COc1cc2c(cc1OC)-c1c(-c3ccc(OC(=O)[C@H](C)NC(=O)OC(C)(C)C)c(OC)c3)c3c4cc(OC)c(OC(=O)[C@H](C)NC(=O)OC(C)(C)C)cc4oc(=O)c3n1CC2 [Compound 21]	SK-MEL-28	no
